Sourced from paper PMC11362529

# Tested on: LUHMES cells
# assayOverview: Protective effects against annonacin toxicity, calcein viability assay
# Assay type: cell-based, human
# conditionNotes: with 20 nM annonacin, glucose-reduced medium, 48 h; 40 μM Ki 696–2, 1 μM HPP-D, 15 μM ezetimibe, 4 μM licochalcone A; most protective or highest non-toxic concentration for the others
Hi there, I'd appreciate the recorded reduction of annonacin toxicity for every entry that follows.
Give bare numbers, in %.

Completed entries (count: 2):
(Q) Report reduction of annonacin toxicity for O=C1[C@H](CC[C@H](O)c2ccc(F)cc2)[C@@H](c2ccc(O)cc2)N1c1ccc(F)cc1 [ezetimibe] tested on LUHMES cells.
(A) 33

(Q) Request - read-out reduction of annonacin toxicity | tested on LUHMES cells | compound C=CC(C)(C)c1cc(/C=C/C(=O)c2ccc(O)cc2)c(OC)cc1O [licochalcone A]
(A) 34.6

We now examine a further compound.
(Q) Lab request: please report reduction of annonacin toxicity under test system LUHMES cells for Cn1c(Nc2nc3ccc(C(F)(F)F)cc3s2)nc2cc(C(=O)NCCOCCO)ccc21 [HPP-D]
(A) 21
